Biological target: T1, recombinant human CD123-Fc (human, UniProt P26951 19-305)
T1 construct: not shown: Fc part of CD123-Fc
T1 sequence: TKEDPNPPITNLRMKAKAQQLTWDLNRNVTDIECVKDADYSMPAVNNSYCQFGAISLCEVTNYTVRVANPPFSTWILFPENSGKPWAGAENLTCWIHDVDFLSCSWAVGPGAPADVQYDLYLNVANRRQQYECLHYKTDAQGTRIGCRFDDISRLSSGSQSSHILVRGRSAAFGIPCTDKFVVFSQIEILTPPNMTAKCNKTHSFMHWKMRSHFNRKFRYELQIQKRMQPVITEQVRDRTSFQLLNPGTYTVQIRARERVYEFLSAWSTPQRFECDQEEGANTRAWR
Assay: phage ELISA, A450 target/A450 IgG1-Fc
Catalogue of ELISA_avg readings, one per entry.
Number in ratio, nothing else.

Worked cases, answers included:
{"Binder": "SEQ ID NO 639 (designed binder) MGSWWEFLDRLEAIEYRLQALGGSEAELAVFEWEIAMFEDHLQGYKGKGNPEVEALHSEAHAIISELSAYRHN", "ELISA_avg (ratio)": 3.1}
{"Binder": "SEQ ID NO 684 (designed binder) MGSWTEFVWRLDAIEWRLEALGGSEAELAAFEKEIAAFESELQAYKGKGNPEVEFLREEAAEIRDWLQAYRHN", "ELISA_avg (ratio)": 4.2}

Could you now consider this next binder?
(Q) Any idea what ELISA_avg was measured for SEQ ID NO 688 (designed binder) MGSWFEFVDRLTAIQVRLWALGGSEAELAAFEKEIAAFESELQAYKGKGNPEVEYLREEAALIRYSLQAYRHN ?
(A) 5.1

Taken from patent US20230125550A1.
